The measurements presented in this section are drawn from patent US20220251044A1.

experimentSummary: Kinetic solubility in SGF, FaSSIF, FeSSIF and water
Type: physicochemical
runConditions: FeSSIF, thermodynamic from solid, FeSSIF, 4 hours; read-out: Kinetic solubility (concentration of Compound I in saturated solution)
outcomeMeasure: solubility kinetic at 4 h
Kindly report the value followed by its unit.

What value of measured solubility kinetic at 4 h is listed for Cc1nc(C(=O)NCC(=O)O)c(O)c2ccc(Oc3ccccc3)cc12 [WO2014014835 Form A, reference compound] ? 150 µg/mL

* * *

experimentSummary: Kinetic solubility in SGF, FaSSIF, FeSSIF and water
Format: physicochemical
runConditions: FaSSIF, thermodynamic from solid, FaSSIF, 8 hours; read-out: Kinetic solubility (concentration of Compound I in saturated solution)
outcomeMeasure: solubility kinetic at 8 h (µg/mL)
Express it in µg/mL; write the number only.

What value of measured solubility kinetic at 8 h is listed for Cc1nc(C(=O)NCC(=O)O)c(O)c2ccc(Oc3ccccc3)cc12 [WO2014014835 Form A, reference compound] ? 567
